Molecular target: alpha4-beta7 on RPMI 8866 cells binding to MadCAM (Homo sapiens, UniProt P13612+P26010)
Construct: endogenous in cells
Sequence (P13612 34-1032): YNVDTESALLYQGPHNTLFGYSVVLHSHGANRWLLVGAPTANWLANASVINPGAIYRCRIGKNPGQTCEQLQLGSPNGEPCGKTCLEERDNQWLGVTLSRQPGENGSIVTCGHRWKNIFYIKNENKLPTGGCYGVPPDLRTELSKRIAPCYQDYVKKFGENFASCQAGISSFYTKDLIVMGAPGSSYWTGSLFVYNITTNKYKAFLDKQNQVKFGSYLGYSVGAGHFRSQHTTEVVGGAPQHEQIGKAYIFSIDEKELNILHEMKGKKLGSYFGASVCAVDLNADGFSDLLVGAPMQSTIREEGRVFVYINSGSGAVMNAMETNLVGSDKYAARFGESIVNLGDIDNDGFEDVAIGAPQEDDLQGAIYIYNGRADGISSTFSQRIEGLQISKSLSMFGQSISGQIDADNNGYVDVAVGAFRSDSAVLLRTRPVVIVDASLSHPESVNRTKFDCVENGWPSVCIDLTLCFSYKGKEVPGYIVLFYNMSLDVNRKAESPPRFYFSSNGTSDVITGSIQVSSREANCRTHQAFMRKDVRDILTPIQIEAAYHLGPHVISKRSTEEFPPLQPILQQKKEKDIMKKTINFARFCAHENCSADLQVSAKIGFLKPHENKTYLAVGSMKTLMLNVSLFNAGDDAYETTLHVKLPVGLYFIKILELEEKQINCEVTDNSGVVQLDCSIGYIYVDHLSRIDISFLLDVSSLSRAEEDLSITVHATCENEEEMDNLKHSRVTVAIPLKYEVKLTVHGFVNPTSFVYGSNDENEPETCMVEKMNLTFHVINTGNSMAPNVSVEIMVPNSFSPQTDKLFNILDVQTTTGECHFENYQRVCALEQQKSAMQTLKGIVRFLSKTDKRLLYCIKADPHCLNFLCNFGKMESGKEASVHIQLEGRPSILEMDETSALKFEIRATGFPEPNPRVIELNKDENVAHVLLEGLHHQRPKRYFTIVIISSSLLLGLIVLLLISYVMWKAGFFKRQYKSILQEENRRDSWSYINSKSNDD
Sequence (P26010 20-798): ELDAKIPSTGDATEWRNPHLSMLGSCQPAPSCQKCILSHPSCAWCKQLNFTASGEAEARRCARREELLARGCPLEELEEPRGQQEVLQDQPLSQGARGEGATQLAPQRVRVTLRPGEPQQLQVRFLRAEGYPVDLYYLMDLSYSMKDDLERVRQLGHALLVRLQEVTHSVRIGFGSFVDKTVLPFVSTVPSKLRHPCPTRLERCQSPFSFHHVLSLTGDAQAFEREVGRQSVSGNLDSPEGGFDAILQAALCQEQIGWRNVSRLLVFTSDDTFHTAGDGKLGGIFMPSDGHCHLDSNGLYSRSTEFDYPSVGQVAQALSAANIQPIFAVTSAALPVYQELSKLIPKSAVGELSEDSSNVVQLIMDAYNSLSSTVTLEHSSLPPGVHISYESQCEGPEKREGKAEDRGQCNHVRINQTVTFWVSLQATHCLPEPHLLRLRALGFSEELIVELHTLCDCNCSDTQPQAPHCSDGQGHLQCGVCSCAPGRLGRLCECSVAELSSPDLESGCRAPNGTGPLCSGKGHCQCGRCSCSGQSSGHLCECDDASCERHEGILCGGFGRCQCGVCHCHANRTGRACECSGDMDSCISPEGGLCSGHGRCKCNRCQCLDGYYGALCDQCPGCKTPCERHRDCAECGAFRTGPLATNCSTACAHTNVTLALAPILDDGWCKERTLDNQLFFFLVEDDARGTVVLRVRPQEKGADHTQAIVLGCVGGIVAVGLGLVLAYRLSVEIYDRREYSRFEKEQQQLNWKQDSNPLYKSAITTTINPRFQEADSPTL
Experiment: Alpha4-Beta7 Assay (MadCAM/RPMI 8866 cell adhesion)
Settings: calcein labeled RPMI 8866 cells, MadCAM coated plates
Measurement Name: IC50

chem_smiles=CCc1cccc(C)c1C(=O)N[C@@H](Cc1ccc(-c2c(C(F)(F)F)cc(C)n(C)c2=O)cc1)C(=O)O assay_target="alpha4-beta7 on RPMI 8866 cells binding to MadCAM (Homo sapiens, UniProt P13612+P26010)" result="< 10 µM"
chem_smiles=Cc1cccc(Cl)c1C(=O)N[C@@H](Cc1ccc(-c2cccn(C)c2=O)cc1)C(=O)O assay_target="alpha4-beta7 on RPMI 8866 cells binding to MadCAM (Homo sapiens, UniProt P13612+P26010)" result="< 10 µM"
chem_smiles=Cc1cc(C(F)(F)F)c(-c2ccc(C[C@H](NC(=O)c3c(Cl)cccc3Cl)C(=O)O)cc2)c(=O)n1C assay_target="alpha4-beta7 on RPMI 8866 cells binding to MadCAM (Homo sapiens, UniProt P13612+P26010)" result="< 0.1 µM"
chem_smiles=Cc1cccc(C(C)C)c1C(=O)N[C@@H](Cc1ccc(-c2c(C(F)(F)F)cc(C)n(C)c2=O)cc1)C(=O)O assay_target="alpha4-beta7 on RPMI 8866 cells binding to MadCAM (Homo sapiens, UniProt P13612+P26010)" result="< 5 µM"
chem_smiles=Cc1cccc(Cl)c1C(=O)N[C@@H](Cc1ccc(-c2c(C)ccn(C)c2=O)cc1)C(=O)O assay_target="alpha4-beta7 on RPMI 8866 cells binding to MadCAM (Homo sapiens, UniProt P13612+P26010)" result="< 10 µM"
chem_smiles=Cc1ccn(C)c(=O)c1-c1ccc(C[C@H](NC(=O)c2c(Cl)cccc2Cl)C(=O)O)cc1 assay_target="alpha4-beta7 on RPMI 8866 cells binding to MadCAM (Homo sapiens, UniProt P13612+P26010)" result="< 10 µM"
chem_smiles=COCCC1(C(=O)N[C@@H](Cc2ccc(-c3c(C(F)(F)F)cc(C)n(C)c3=O)cc2)C(=O)O)CCCC1 assay_target="alpha4-beta7 on RPMI 8866 cells binding to MadCAM (Homo sapiens, UniProt P13612+P26010)" result="< 10 µM"
chem_smiles=Cc1cccc(Cl)c1C(=O)N[C@@H](Cc1ccc(-c2c(C(F)(F)F)cc(C)n(C)c2=O)cc1)C(=O)O assay_target="alpha4-beta7 on RPMI 8866 cells binding to MadCAM (Homo sapiens, UniProt P13612+P26010)" result="< 10 µM"

* * *

Measurement Name: melting point

chem_smiles=Cc1cccc(Cl)c1C(=O)N[C@@H](Cc1ccc(-c2c(C(F)(F)F)cc(C)n(C)c2=O)cc1)C(=O)O result="220 to 223 °C"
chem_smiles=Cc1cccc(Cl)c1C(=O)N[C@@H](Cc1ccc(-c2cccn(C)c2=O)cc1)C(=O)O result="204 to 210 °C"
chem_smiles=CCc1cccc(C)c1C(=O)N[C@@H](Cc1ccc(-c2c(C(F)(F)F)cc(C)n(C)c2=O)cc1)C(=O)O result="219 to 221 °C"
chem_smiles=COCCC1(C(=O)N[C@@H](Cc2ccc(-c3c(C(F)(F)F)cc(C)n(C)c3=O)cc2)C(=O)O)CCCC1 result="181 to 183 °C"
